# assay-target: Programmed cell death protein 1/Programmed cell death 1 ligand 1 (Homo sapiens)
# Sequence (Q15116 whole entry): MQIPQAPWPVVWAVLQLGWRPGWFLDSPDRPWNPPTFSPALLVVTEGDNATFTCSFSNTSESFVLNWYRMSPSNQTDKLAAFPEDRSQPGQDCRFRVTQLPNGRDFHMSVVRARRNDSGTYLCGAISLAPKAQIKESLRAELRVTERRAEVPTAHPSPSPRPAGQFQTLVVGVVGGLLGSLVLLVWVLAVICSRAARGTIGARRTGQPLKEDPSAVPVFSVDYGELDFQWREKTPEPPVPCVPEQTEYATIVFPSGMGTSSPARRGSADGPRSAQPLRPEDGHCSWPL
# Sequence (Q9NZQ7 whole entry): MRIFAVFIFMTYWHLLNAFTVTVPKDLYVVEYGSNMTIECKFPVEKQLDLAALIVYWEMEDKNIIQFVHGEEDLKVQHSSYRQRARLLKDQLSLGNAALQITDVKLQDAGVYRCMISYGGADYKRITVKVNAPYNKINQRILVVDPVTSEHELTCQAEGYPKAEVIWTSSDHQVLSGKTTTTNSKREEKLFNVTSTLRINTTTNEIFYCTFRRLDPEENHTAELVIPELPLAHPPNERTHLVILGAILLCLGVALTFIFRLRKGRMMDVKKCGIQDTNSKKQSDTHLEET
# protocol-summary: Inhibition of human PD1/PDL1 protein-protein interaction by HTRF assay
# Type: protein-complex assay
pIC50: −log10 of the molar value.
I'd appreciate it if you could supply pIC50 values for the items below.

compound	assay-target	pIC50
Cc1c(COc2cc(OCc3cccc(C#N)c3)c(CN3CCN(C(=O)OC(C)(C)C)CC3)cc2Cl)cccc1-c1ccc2c(c1)OCCO2	Programmed cell death protein 1/Programmed cell death 1 ligand 1 (Homo sapiens)	< 6.00

Would you mind listing pIC50 for each of the following compounds?
1. Cc1c(COc2cc(OCc3cccc(C#N)c3)c(CNC(C)(C)C(=O)O)cc2Cl)cccc1-c1cccnc1
2. CC(=O)N1CCN(Cc2ccc3oc(-c4cccc(-c5ccccc5)c4)cc(=O)c3c2)CC1

1. 7.00 to 8.00
2. < 5.00

Below are some compounds; for each one, tell me its pIC50.
1. Cc1c(COc2cc(OCc3cccc(C#N)c3)c(CN3CCCC[C@H]3C(=O)O)cc2Cl)cccc1-c1ccncc1
2. Cc1c(COc2cc(OCc3cccc(C#N)c3)c(CN3C[C@H](O)[C@@H](F)C3)cc2Cl)cccc1-c1ccccc1
3. CC(=O)N1CCN(Cc2ccc3oc(-c4cccc(-c5ccc6c(c5)OCCO6)c4C)cc(=O)c3c2)CC1
4. Cc1c(COc2ccc3cc(CN4C[C@@H](O)C[C@H]4C(=O)O)ccc3c2)cccc1-c1ccc2c(c1)OCCO2
5. Cc1c(COc2cc(OCc3cccc(C#N)c3)c(CN3CCCC[C@H]3C(=O)O)cc2Cl)cccc1-c1cncnc1

< 7.00
< 7.00
< 5.00
< 5.00
< 7.00

// for each compound below, give its pIC50
1. Cc1c(COc2cc(OCc3cccc(C#N)c3)c(CN3CC(O)C(CO)C3)cc2Cl)cccc1-c1ccc2c(c1)OCCO2 (stereo not given)
2. Cc1c(COc2cc(OCc3cccc(C#N)c3)c(CN3CC[C@H](O)C3)cc2Cl)cccc1-c1ccc2c(c1)OCCO2
3. Cc1c(COc2cc(OCc3cccc(C#N)c3)c(CN[C@H](CO)C(=O)O)cc2Cl)cccc1-c1cccnc1
4. Cc1c(/C=C/C(=O)c2cc(CN3CCN(c4cccc([N+](=O)[O-])c4)CC3)ccc2O)cccc1-c1ccc2c(c1)OCCO2

7.78
7.56
7.00 to 8.00
4.71

Hi, could you look up pIC50 for each item in my list?
1. Cc1c(COc2cc(OCc3cccc(C#N)c3)c(CN3CCN(C4CC4)CC3)cc2Cl)cccc1-c1ccc2c(c1)OCCO2
2. Cc1c(COc2cc(OCc3cccc(C#N)c3)c(CN[C@H](CO)C(=O)O)cc2Cl)cccc1-c1ccccc1
3. Cc1c(COc2cc(OCc3cccc(C#N)c3)c(CN[C@@H](C(=O)O)[C@H](C)O)cc2Cl)cccc1-c1ccncc1
4. CC(=O)N1CCN(Cc2ccc(O)c(C(=O)/C=C/c3cccc(-c4ccccc4)c3C)c2)CC1
5. Cc1c(COc2cc(OCc3cccc(C#N)c3)c(CNCCNC(=O)OC(C)(C)C)cc2Cl)cccc1-c1ccc2c(c1)OCCO2
6. Cc1c(COc2cc(OCc3cccc(C#N)c3)c(CN3CCN(C)CC3)cc2Cl)cccc1-c1ccc2c(c1)OCCO2
7. CC(=O)NCCNCc1ccc2cc(OCc3cccc(-c4ccccc4)c3C)ccc2c1
8. O=c1cc(-c2ccc(O)cc2)oc2cc(O[C@@H]3O[C@H](CO)[C@@H](O)[C@H](O)[C@H]3O[C@@H]3OC[C@](O)(CO)[C@H]3O)cc(O)c12 [APIIN]

[6.39, 8.10, "< 7.00", 4.84, 7.25, 6.65, "< 5.00", "< 4.00"]
